tested on: LOC_OS01G67340-cb003; assay: thermal shift delta Tm vs DMSO control; higher = stronger stabilization (binding); details: 12.5 µM; protein concentration 2 µM;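 further: purified Escherichia coli-expressed rice kinase domain construct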
Label Condition met when thermal shift delta Tm is at or above -0.03 °C; anything below gets Condition not met.

[
  {
    "molecule": "COc1cc2c(N3CCN(C(=O)Nc4ccc(OC(C)C)cc4)CC3)ncnc2cc1OCCCN1CCCCC1 [Tandutinib (MLN518)]",
    "label value": "Condition met"
  }
]

State whether the measured thermal shift delta Tm reaches -0.03 °C, counting equality as reaching it, for "Cc1cc(Nc2nc(N[C@@H](C)c3ncc(F)cn3)ncc2Cl)[nH]n1"
Condition not met

State whether the measured thermal shift delta Tm reaches -0.03 °C, counting equality as reaching it, for "CCN1CCN(Cc2ccc(-c3cc4c(N[C@H](C)c5ccccc5)ncnc4[nH]3)cc2)CC1"
Condition not met

Say whether "COCCOc1ccc2c(c1)ncn2-c1ccc2cccc(N3CCC(N)CC3)c2n1" shows thermal shift delta Tm of -0.03 °C or more.
Condition met

Tell me whether thermal shift delta Tm is at least -0.03 °C here: "CN1CCN(c2ccc(-c3ccncc3-c3cc(F)c(O)c(F)c3)cc2)CC1"
Condition met

In plain terms: is recorded thermal shift delta Tm at least -0.03 °C for COc1cc(Nc2ncc(F)c(Nc3ccc4c(n3)NC(=O)C(C)(C)O4)n2)cc(OC)c1OC [R406 (free base)] ?
Condition met

Identify whether the reported thermal shift delta Tm of the following molecule is -0.03 °C or greater: "CNC(=O)c1nn(C)c2c1C(C)(C)Cc1cnc(Nc3ccc(N4CCN(C)CC4)cc3)nc1-2"
Condition met

Hi, just wondering whether "CCCCOc1c(C(=O)c2c(F)cc(C)cc2F)c[nH]c2nncc1-2" shows thermal shift delta Tm of -0.03 °C or higher.
Condition met

###

tested on: LOC_OS01G13800-cb001; assay: thermal shift delta Tm vs DMSO control; higher = stronger stabilization (binding); conditions: 12.5 µM; protein concentration 2 µM
Counter-ions that a name gives are not always drawn.
Parameter threshold = 0.4 °C. Response is YES when thermal shift delta Tm meets or exceeds it, else NO.

[
  {
    "compound": "C=C[C@@](C)(/C=C/c1ccc(O)cc1)CCC=C(C)C",
    "label value": "NO"
  },
  {
    "compound": "O=C1NC(=O)/C(=C/c2ccc3nccc(-c4ccncc4)c3c2)S1",
    "label value": "NO"
  },
  {
    "compound": "Cc1ccc(NC(=O)c2ccc(CN3CCN(C)CC3)cc2)cc1Nc1nc(-c2cccnc2)cs1",
    "label value": "NO"
  },
  {
    "compound": "C=CC(=O)Nc1cccc(Nc2nc(Nc3ccc(N4CCN(C(C)=O)CC4)cc3OC)ncc2C(F)(F)F)c1",
    "label value": "NO"
  }
]

Below: the item to evaluate.
Exam item: decide whether the reported thermal shift delta Tm for O=C(Nc1cccc(Cl)c1)Nc1ncc(CCNc2ncnc3ccsc23)s1 [SNS-314 Mesylate] is at least 0.4 °C.
YES

###

system: LOC_OS01G51400-cb002; experiment: thermal shift delta Tm vs DMSO control; higher = stronger stabilization (binding); settings: 12.5 µM; protein concentration 2 µM
Where thermal shift delta Tm equals or exceeds 0.08 °C, the correct label is Met; where it does not, the label is Not met.

These solved cases illustrate the format of a correct answer.
[
  {
    "compound": "COc1ccc(/C=C/C(=O)C2(C(=O)/C=C/c3ccc(OC)c(OC)c3)CCCCC2)cc1OC",
    "label value": "Not met"
  },
  {
    "compound": "CN1CCC(Nc2nc(Nc3ccc(Oc4ccccc4)cc3)c3c(=O)[nH]cc(Br)c3n2)CC1",
    "label value": "Met"
  },
  {
    "compound": "O=C(NCc1cccc(O)c1)Nc1nc(-c2ccncc2)cs1",
    "label value": "Met"
  }
]

Quick check, thermal shift delta Tm >= 0.08 °C? "CN(c1ccccc1CNc1nc(Nc2ccc3c(c2)CC(=O)N3)ncc1C(F)(F)F)S(C)(=O)=O"
Met

Hi, just wondering whether "O=C(Cc1ccc(-c2ccc(OCCN3CCOCC3)cc2)cn1)NCc1ccccc1" shows thermal shift delta Tm of 0.08 °C or higher.
Not met

API: above_or_equal(metric=thermal shift delta Tm, cutoff=0.08 °C) for item Cc1ccc(C(=O)Nc2ccc(CN3CCN(C)CC3)c(C(F)(F)F)c2)cc1C#Cc1cnc2[nH]ncc2c1 [GZD824 Dimesylate]
Met

thermal shift delta Tm >= 0.08 °C for CO[C@H]1C[C@@H]2CC[C@@H](C)[C@@](O)(O2)C(=O)C(=O)N2CCCC[C@H]2C(=O)O[C@H]([C@H](C)C[C@@H]2CC[C@@H](O)[C@H](OC)C2)CC(=O)[C@H](C)/C=C(\C)[C@@H](O)[C@@H](OC)C(=O)[C@H](C)C[C@H](C)/C=C/C=C/C=C/1C [Rapamycin (Sirolimus)] ?
Met

Check if thermal shift delta Tm >= 0.08 °C (inclusive). Item: "COCC(=O)NC/C=C/c1ccc2ncnc(Nc3ccc(Oc4ccc(C)nc4)c(C)c3)c2c1"
Not met

Would you say CC(C)c1cnn2c(NCc3ccccc3-n3cccn3)nc(OC3CCCNC3)nc12 (stereo unspecified) shows thermal shift delta Tm at minimum 0.08 °C?
Met

Hello, I need to know if "NC(=O)c1cnc(N[C@@H]2CCCC[C@@H]2N)nc1Nc1cccc(-n2nccn2)c1" has measured thermal shift delta Tm not below 0.08 °C. Thanks!
Met

Could you tell me if the measured thermal shift delta Tm of "CCNC(=O)C#Cc1ccc2c(C(=Nc3ccc(CN(C)C)cc3)c3ccccc3)c(O)[nH]c2c1" reaches 0.08 °C or more?
Not met
